System: SF-295 CNS
measurementNotes: NCI-60 one-dose screen, 48 h
experimentalParameters: 10 µM unless noted
About 83,000 compounds went through this panel and 20% of them were active in at least one assay; those are over-represented in the sample as a whole. Active and inactive are the calls of the source. The calls were made as follows: active = growth percent below 10; inactive = the rest.
Pick one: 1.0 for active, 0.0 for inactive

| compound | answerLabel |
| --- | --- |
| COc1ccc(-c2ccc(-c3ccc(C(=N)N)nc3)s2)cc1Cl | 1.0 |
| COC(=O)N1CC(Oc2ccccn2)C2CC1c1ccccc1O2 (centres undefined) | 0.0 |
| O=C1Nc2ccccc2/C1=C\c1c[nH]c2ccc(Br)cc12 | 0.0 |
| O=C(NCc1cccc(CNC(=O)Nc2nc3ccccc3[nH]2)c1)Nc1nc2ccccc2[nH]1 | 1.0 |

input: Returns: the outcome recorded for "O=C(/C=C/c1ccccc1)c1ccc(Nc2nc(Nc3ccc(F)cc3)nc(Nc3ccc(Cl)cc3)n2)cc1" in this assay.
output: 0.0

input: Returns: the outcome recorded for "Cc1ccc(CNc2c3ccccc3nc3ccccc23)cc1" in this assay.
output: 0.0

input: Returns: the outcome recorded for "O=C1c2ccccc2C(=O)C1c1ccc(Br)cc1" in this assay.
output: 0.0

input: Returns: the outcome recorded for "CCOC(=O)c1ccccc1-c1c2ccc(=[N+](C)C)cc-2oc2cc(N(C)C)ccc12" in this assay.
output: 1.0
